FYI, the data here is from PubChem BioAssay AID1117355.

Biological target: Glycogen synthase kinase-3 beta (Homo sapiens) (UniProt P49841)
Sequence (P49841 whole entry, looked up): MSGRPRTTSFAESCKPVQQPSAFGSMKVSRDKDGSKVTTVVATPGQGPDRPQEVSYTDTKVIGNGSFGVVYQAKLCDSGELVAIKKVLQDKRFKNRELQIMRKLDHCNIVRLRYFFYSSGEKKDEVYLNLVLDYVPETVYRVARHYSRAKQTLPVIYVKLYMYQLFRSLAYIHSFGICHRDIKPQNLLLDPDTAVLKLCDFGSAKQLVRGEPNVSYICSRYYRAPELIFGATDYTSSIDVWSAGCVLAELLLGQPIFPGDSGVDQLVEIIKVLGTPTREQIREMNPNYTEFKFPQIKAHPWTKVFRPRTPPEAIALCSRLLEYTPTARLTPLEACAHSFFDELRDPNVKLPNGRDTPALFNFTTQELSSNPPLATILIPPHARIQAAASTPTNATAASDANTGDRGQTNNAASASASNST
Experiment: NPC library primary assay, GSK-3β enzyme inhibitors, biochemical, Homo sapiens, LANCE Ultra TR-FRET detection (AID 1117355)
Conditions: LANCE Ultra TR-FRET kinase activity; at 20 µM (top of the series)
endpoint: inhibition (%)
// note: answer is a bare numeric in %

Please look up its inhibition: CCCSc1ccc2nc(NC(=O)OC)[nH]c2c1
-11.3

Please look up its inhibition: COc1cccc2c1C(=O)c1c(O)c3c(c(O)c1C2=O)C[C@@](O)(C(C)=O)C[C@@H]3O[C@H]1C[C@H](N)[C@H](O)[C@H](C)O1
7.12

Please look up its inhibition: Cc1cc(C)c(/C=C2\C(=O)Nc3ccccc32)[nH]1
-34.3

Please look up its inhibition: COc1cc(-c2ccc(=O)[nH]n2)ccc1OC(F)F
-21.7

Please look up its inhibition: COc1cc([C@@H]2c3cc4c(cc3[C@H](O)[C@H]3COC(=O)[C@H]23)OCO4)cc(OC)c1OC
26.6

Please look up its inhibition: O=C(NOCC1CC1)c1ccc(F)c(F)c1Nc1ccc(I)cc1Cl
-12.6

Please look up its inhibition: CC(C)C[C@H](NC(=O)[C@H](CCc1ccccc1)NC(=O)CN1CCOCC1)C(=O)N[C@@H](Cc1ccccc1)C(=O)N[C@@H](CC(C)C)C(=O)[C@@]1(C)CO1
20.4

Please look up its inhibition: CCCN(CCC)C(=O)C(CCC(=O)OCCCN1CCN(CCOC(=O)Cc2c(C)n(C(=O)c3ccc(Cl)cc3)c3ccc(OC)cc23)CC1)NC(=O)c1ccccc1 (stereo not drawn)
0.27

Please look up its inhibition: O=[N+]([O-])c1ccc(O)c2ncccc12
-9.81

Please look up its inhibition: CC[C@@H]([C@H](C)O)n1ncn(-c2ccc(N3CCN(c4ccc(OC[C@@H]5CO[C@@](Cn6cncn6)(c6ccc(F)cc6F)C5)cc4)CC3)cc2)c1=O
8.55

Please look up its inhibition: CSc1ccc2c(c1)C(N1CCN(C)CC1)Cc1ccccc1S2 (stereo not drawn)
0.73

Please look up its inhibition: O=C(O)c1ccc(-n2nc(-c3ccccc3O)nc2-c2ccccc2O)cc1
37.5

Please look up its inhibition: Oc1c(Cl)cc(Cl)c2cccnc12
-26.5

* * *

Target: Glycogen synthase kinase-3 beta (Homo sapiens) (UniProt P49841)
Experiment: NPC library primary assay, GSK-3β enzyme inhibitors, biochemical, Homo sapiens, LANCE Ultra TR-FRET detection (AID 1117355)
Conditions: LANCE Ultra TR-FRET kinase activity; at 20 µM (top of the series)
endpoint: inhibition (%)
// note: answer is a bare numeric in %

>>> df
                         compound_structure  test_value
0      COC(=O)Nc1nc2ccc(C(=O)C3CC3)cc2[nH]1        54.4
1  CC(C)(C)C(=O)OCOP(=O)(COCCn1cnc2c(N)ncnc21)OCOC(=O)C(C)(C)C        7.97

Now for a further compound.
Please look up its inhibition: Cc1nc(Nc2ncc(C(=O)Nc3c(C)cccc3Cl)s2)cc(N2CCN(CCO)CC2)n1
38.8

* * *

Molecular target: Glycogen synthase kinase-3 beta (Homo sapiens) (UniProt P49841)
Assay: NPC library primary assay, GSK-3β enzyme inhibitors, biochemical, Homo sapiens, LANCE Ultra TR-FRET detection (AID 1117355)
Details: LANCE Ultra TR-FRET kinase activity; at 20 µM (top of the series)
endpoint: inhibition (%)
// note: answer is a bare numeric in %

compound	test_value
Cc1ccc2nc(N)[nH]c(=O)c2c1Sc1ccncc1	-35.9
CN1CC[C@H](c2c(O)cc(O)c3c(=O)cc(-c4ccccc4Cl)oc23)[C@H](O)C1	99.9
CC(=O)[C@]1(O)Cc2c(O)c3c(c(O)c2[C@@H](O[C@H]2C[C@H](N)[C@H](O)[C@H](C)O2)C1)C(=O)c1ccccc1C3=O	5.63
CCCCc1oc2ccccc2c1C(=O)c1cc(I)c(OCCN(CC)CC)c(I)c1	26
CCC1=C[C@@H]2CN(C1)Cc1c([nH]c3ccccc13)[C@@](C(=O)OC)(c1cc3c(cc1OC)N(C)[C@H]1[C@@](O)(C(=O)OC)[C@H](OC(C)=O)[C@]4(CC)C=CCN5CC[C@]31[C@@H]54)C2	24.2
CCCCCCCCCCCCCCCCCCNC(=O)OC1CCN(C(=O)OC[C@H](COC(=O)N(Cc2cccc[n+]2CC)C(=O)c2ccccc2OC)OC)CC1	24

Please look up its inhibition: CC(C)C[C@H](NC(=O)[C@H](Cc1ccccc1)NC(=O)c1cnccn1)B(O)O
1.64

Please look up its inhibition: COC(=O)[C@H]1[C@H]2C[C@@H]3c4[nH]c5cc(OC)ccc5c4CCN3C[C@H]2C[C@@H](OC(=O)/C=C/c2ccc(O)c(OC)c2)[C@@H]1OC
7.56

Please look up its inhibition: COC(=O)c1nc(Cl)c(Cl)nc1N
20.8

Please look up its inhibition: Cc1ccccc1C(=O)Nc1ccc(C(=O)N2CCCC(N(C)C)c3ccccc32)cc1 (stereo not given)
18.2

Please look up its inhibition: COc1cc2nc(N3CCN(C(=O)c4ccco4)CC3)nc(N)c2cc1OC
-50.4
